Biological target: CDK1/A2 (Homo sapiens (Human), UniProt P06493)
Sequence (P06493 whole entry): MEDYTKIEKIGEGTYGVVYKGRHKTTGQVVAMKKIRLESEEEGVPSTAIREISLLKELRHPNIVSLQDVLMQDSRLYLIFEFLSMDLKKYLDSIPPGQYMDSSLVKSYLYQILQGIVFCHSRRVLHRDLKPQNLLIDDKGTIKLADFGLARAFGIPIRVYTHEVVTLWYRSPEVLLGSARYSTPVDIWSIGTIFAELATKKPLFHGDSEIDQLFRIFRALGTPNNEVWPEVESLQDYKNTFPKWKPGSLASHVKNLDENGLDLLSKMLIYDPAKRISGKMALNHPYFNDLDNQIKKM
Sequence (P20248 whole entry partner): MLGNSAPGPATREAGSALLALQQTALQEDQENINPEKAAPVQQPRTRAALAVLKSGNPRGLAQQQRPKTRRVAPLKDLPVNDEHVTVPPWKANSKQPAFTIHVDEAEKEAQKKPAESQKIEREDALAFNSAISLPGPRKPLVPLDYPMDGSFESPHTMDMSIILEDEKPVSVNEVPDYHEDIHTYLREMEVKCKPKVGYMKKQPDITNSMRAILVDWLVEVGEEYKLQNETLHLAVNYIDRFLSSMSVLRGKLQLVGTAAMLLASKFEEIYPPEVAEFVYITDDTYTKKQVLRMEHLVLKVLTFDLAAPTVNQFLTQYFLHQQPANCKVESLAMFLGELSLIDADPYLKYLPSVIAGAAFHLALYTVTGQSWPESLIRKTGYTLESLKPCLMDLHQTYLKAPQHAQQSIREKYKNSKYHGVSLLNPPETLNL
Test: CDKs inhibition assay (ADP-Glo Kinase Assay), CDK1
Conditions: read-out: IC50 (nM) CDK1/A2
Parameter IC50: see the listing below.
Supply the numeric figure in nM, leaving out any unit text.

Illustrative cases are given below, each with its answer.
Compound: CC1(C)Cc2nc3c(F)cc(-c4nc(Nc5ccc(N6CCNCC6)cn5)ncc4F)cc3n2C1 [Example 55]
System under test: CDK1/A2 (Homo sapiens (Human), UniProt P06493)
Value units: nM
Quantitative readout: 6240
--
Compound: CC1CCc2nc3c(F)cc(-c4ccnc(Nc5ccc(N6CCNCC6)cn5)n4)cc3n21 (stereo not drawn) [Example 72]
System under test: CDK1/A2 (Homo sapiens (Human), UniProt P06493)
Value units: nM
Quantitative readout: 693
--
Compound: Cc1nc(Nc2ncc(F)c(-c3cc(F)c4nc5n(c4c3)C(C)(C)CC5)n2)ccc1CC1CCNCC1 [Example 30]
System under test: CDK1/A2 (Homo sapiens (Human), UniProt P06493)
Value units: nM
Quantitative readout: 744
--
Compound: C[C@H]1CN(Cc2ccc(Nc3ncc(F)c(-c4cc(F)c5nc6n(c5c4)C(C)(C)CC6)n3)nc2)CCN1C [Example 47]
System under test: CDK1/A2 (Homo sapiens (Human), UniProt P06493)
Value units: nM
Quantitative readout: 745

Please look up its IC50: CN1CCN(c2ccc(Nc3ncc(F)c(-c4cc(F)c5nc6n(c5c4)C(C)(C)CC6)n3)nc2)CC1 [Example 43]
732

Ok, now CC1CN(c2ccc(Nc3ncc(F)c(-c4cc(F)c5nc6n(c5c4)C(C)(C)CC6)n3)nc2)CC(C)N1 (stereo not drawn) [Example 74]
94.8

---

Parameter IC50: see the listing below.
System: human breast cancer cell line MDB-MA-231
Assay: Proliferation inhibition assay on human breast cancer cell line MDA-MB-231 (DAPI staining, In Cell Analyzer)
Format: cell-based
Conditions: MDA-MB-231, 72 h, read-out: IC50 for inhibition of proliferation of human breast cancer cell line MDB-MA-231
Answers without a unit are incomplete; give the number and then its unit.

Illustrative cases are given below, each with its answer.
Test smiles: O=C(CO)N1CCc2nc(Nc3ncc(F)c(-c4cc(F)c5nc6n(c5c4)CCCC6)n3)ccc2C1
Result: 1230 nM
--
Test smiles: Fc1cnc(Nc2ccc(N3CCNCC3)cn2)nc1-c1cc(F)c2nc3n(c2c1)CCCC3
Result: 1170 nM

Shifting focus to the compound that follows.
Please look up its IC50: CCN1CCC(c2ccc(Nc3ncc(F)c(-c4cc(F)c5nc6n(c5c4)C(C)(C)CC6)n3)nc2)CC1
30 nM

---

Molecular target: CDK6/D3 (Homo sapiens (Human))
Sequence (Q00534 whole entry): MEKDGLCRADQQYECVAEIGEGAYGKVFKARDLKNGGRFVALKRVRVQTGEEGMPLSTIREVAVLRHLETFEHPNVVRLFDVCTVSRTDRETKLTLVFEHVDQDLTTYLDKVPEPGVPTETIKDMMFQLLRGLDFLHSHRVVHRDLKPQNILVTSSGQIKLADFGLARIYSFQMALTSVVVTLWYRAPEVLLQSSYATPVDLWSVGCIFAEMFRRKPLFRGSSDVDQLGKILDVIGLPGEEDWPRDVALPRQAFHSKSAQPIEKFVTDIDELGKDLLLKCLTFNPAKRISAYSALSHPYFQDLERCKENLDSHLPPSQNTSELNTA
Sequence (P30281 whole entry partner): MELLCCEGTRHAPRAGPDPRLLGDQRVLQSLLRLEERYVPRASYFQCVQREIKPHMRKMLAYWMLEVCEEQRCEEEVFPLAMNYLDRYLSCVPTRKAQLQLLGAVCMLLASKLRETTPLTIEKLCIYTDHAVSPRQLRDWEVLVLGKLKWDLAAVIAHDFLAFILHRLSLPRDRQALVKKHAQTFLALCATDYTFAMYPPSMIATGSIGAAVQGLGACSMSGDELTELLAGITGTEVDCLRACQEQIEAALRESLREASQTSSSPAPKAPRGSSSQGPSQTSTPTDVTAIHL
Assay: CDKs inhibition assay (ADP-Glo Kinase Assay), CDK6
pIC50: −log10 of the molar value.
Kind request: treat 8 as inclusive, so pIC50 at 8 or higher is rule met, anything lower is rule not met.

Solved entries (count: 5):
Compound: CC1(C)CCc2nc3c(F)cc(-c4nc(Nc5ccc(OC6CCNCC6)cn5)ncc4F)cc3n21
Answer label: rule met

Compound: C[C@H]1CN(Cc2ccc(Nc3ncc(F)c(-c4cc(F)c5nc6n(c5c4)C(C)(C)CC6)n3)nc2)CCN1C
Answer label: rule met

Compound: CC1CCc2nc3c(F)cc(-c4nc(Nc5ccc(C6CCN(C)CC6)cn5)ncc4F)cc3n21 (stereo not shown)
Answer label: rule not met

Compound: CCC1Cc2nc3c(F)cc(-c4nc(Nc5ccc(N6CCNCC6)cn5)ncc4F)cc3n2C1 (stereo not shown)
Answer label: rule not met

Compound: CC1(C)CCc2nc3c(F)cc(-c4nc(Nc5ccc6c(n5)CCN(C(=O)CO)C6)ncc4F)cc3n21
Answer label: rule not met

Check if pIC50 >= 8 (inclusive). Item: CCN1CCC(c2ccc(Nc3ncc(F)c(-c4cc(F)c5nc6n(c5c4)C(C)(C)CC6)n3)nc2)CC1
rule not met

Values compiled from patent US10696678B2.
